- Test system: SLR
- Experimental Details: Steady-state kinetics of luciferase reactions (luminometer)
- Format: biochemical, Phrixothrix hirtus
- Applied Conditions: concentration range tested 0-300
Measured Property: Substrate inhibition

{"columns": ["Molecule", "Substrate inhibition"],
 "data": [
  ["COc1cc2nc(C3=N[C@@H](C(=O)O)CS3)sc2c(OC)c1O", "> 16.6 µM"],
  ["Cc1cc2nc(C3=N[C@@H](C(=O)O)CS3)sc2cc1O", "> 14 µM"],
  ["O=C(O)[C@H]1CSC(c2nc3ccc(O)cc3s2)=N1 [Compound 2a, D-luciferin, reference compound]", "> 4 µM"]
]}

--- query ---
Value of Substrate inhibition reported for the molecule Cc1cc2nc(C3=N[C@@H](C(=O)O)CS3)sc2c(C)c1O is > 2.1 µM
